- System: HEK293T (UBE3A T485A transfected, BAR Wnt reporter)
- Experiment Summary: Renilla luciferase signal (cell health) relative to plate median (fold (linear ratio)); higher = higher Renilla signal
- Study Conditions: concentration: 1 uM; 24 h
Over roughly 1,100 compounds, “Renilla luciferase signal (cell health) relative to plate median” has its median near 0.97; the highest 2% begin near 1.6. The entries come from a sample that favours the highest values as a whole.
Label y for high-side Renilla luciferase signal (at or above 0.9) and n for low-side Renilla luciferase signal (below it).

{"columns": ["Molecule", "Group Label"],
 "data": [
  ["CN(C)C(=S)[S-].CN(C)C(=S)[S-].[Zn+2]", "n"],
  ["COc1cc(OC)nc(Sc2cccc(Cl)c2C(=O)[O-])n1.[Na+] [Pyrithiobac-sodium]", "y"],
  ["CN(C)c1nc(=O)n(C2CCCCC2)c(=O)n1C", "n"],
  ["CSc1nc(NC(C)C)nc(NC(C)C)n1", "y"],
  ["Clc1cccc(Cl)c1Cl", "y"],
  ["CCCN(CC)CC1COC2(CCC(C(C)(C)C)CC2)O1 (stereo not drawn)", "y"],
  ["CSC(=O)c1c(C(F)F)nc(C(F)(F)F)c(C(=O)SC)c1CC(C)C", "y"],
  ["CC(C)N(C(=O)SCC(Cl)=C(Cl)Cl)C(C)C [Tri-allate]", "y"],
  ["C[C@]12CCC(=O)C[C@@H]1CC[C@@H]1[C@@H]2CC[C@]2(C)[C@@H](O)CC[C@@H]12 [5alpha-Dihydrotestosterone]", "n"],
  ["CC(C)(C)C(O)C(Oc1ccc(Cl)cc1)n1cncn1 (stereo not drawn)", "n"],
  ["CCNc1nc(NC(C)C)nc(SC)n1", "n"],
  ["CC(c1ccc(O)cc1)(c1ccc(O)cc1)c1ccc(O)cc1", "n"],
  ["CCC(=O)O[C@H]1CC[C@H]2[C@@H]3CCC4=CC(=O)CC[C@]4(C)[C@H]3CC[C@]12C [Testosterone propionate]", "n"],
  ["CNC(=O)N(C)c1nnc(C(C)(C)C)s1", "y"],
  ["COc1ccc(-c2ccccc2)cc1NNC(=O)OC(C)C [Bifenazate]", "y"]
]}

----------
- System: HEK293T (UBE3A T485A transfected, BAR Wnt reporter)
- Experiment Summary: Renilla luciferase signal (cell health) relative to plate median (fold (linear ratio)); higher = higher Renilla signal
- Study Conditions: concentration: 0.1 uM; 24 h
The full ranking holds about 1,100 compounds; the median of “Renilla luciferase signal (cell health) relative to plate median” is about 0.97, and the highest 2% start at about 1.6. Only a selection was taken, and the highest values are over-represented in it overall.
Hi, to clarify the labels: yes (1) covers Renilla luciferase signal from 1 upward, no (0) covers anything below 1.

{"columns": ["Compound", "Group Label"],
 "data": [
  ["CCC(C)(CC)c1cc(NC(=O)c2c(OC)cccc2OC)on1 [Isoxaben]", "no (0)"],
  ["CNC(=O)Oc1ccccc1OC(C)C [Propoxur]", "no (0)"],
  ["CNC(=O)Oc1cccc2c1OC(C)(C)C2 [Carbofuran]", "yes (1)"],
  ["CCOC1Oc2ccc(OS(C)(=O)=O)cc2C1(C)C (centres undefined) [Ethofumesate]", "yes (1)"],
  ["CS(=O)(=O)c1cc(C(F)(F)F)ccc1C(=O)c1cnoc1C1CC1 [Isoxaflutole]", "no (0)"],
  ["O=S1OCC2C(CO1)C1(Cl)C(Cl)=C(Cl)C2(Cl)C1(Cl)Cl (centres undefined) [Endosulfan]", "yes (1)"],
  ["Nc1ccc(Cc2ccc(N)cc2)cc1 [4,4'-Methylenedianiline]", "no (0)"],
  ["CSC(=O)c1c(C(F)F)nc(C(F)(F)F)c(C(=O)SC)c1CC(C)C [Dithiopyr]", "no (0)"],
  ["CCNc1nc(NC(C)C)nc(SC)n1 [Ametryn]", "no (0)"],
  ["O=C(NC(=O)c1cc(F)c(F)cc1Cl)Nc1cc(F)ccc1N1CCC(C(=O)O)CC1", "no (0)"],
  ["CC(c1ccc(O)cc1)(c1ccc(O)cc1)c1ccc(O)cc1 [4,4',4\"-Ethane-1,1,1-triyltriphenol]", "no (0)"],
  ["CCOP(=S)(OCC)Oc1ccc2c(C)c(Cl)c(=O)oc2c1 [Coumaphos]", "yes (1)"],
  ["ClC(Cl)c1ccccc1 [Benzal chloride]", "yes (1)"],
  ["CCOP(=S)(OCC)Oc1ccc([N+](=O)[O-])cc1 [Parathion]", "yes (1)"],
  ["CC1=C(C(=O)Nc2ccccc2)SCCO1 [Carboxin]", "yes (1)"],
  ["CCOP(=O)(OCC)Oc1nc(Cl)c(Cl)cc1Cl [Chlorpyrifos oxon]", "yes (1)"],
  ["O=[N+]([O-])/N=C1\\NCCN1Cc1ccc(Cl)nc1 [Imidacloprid]", "yes (1)"],
  ["COc1cc(C=O)cc2c1[C@H](COC(N)=O)[C@]1(OC(C)=O)ON2C[C@H]2[C@@H]1N2C(C)=O", "no (0)"],
  ["C#CCN1C(=O)COc2cc(F)c(N3C(=O)C4=C(CCCC4)C3=O)cc21 [Flumioxazin]", "yes (1)"],
  ["CN/C(=N\\[N+](=O)[O-])NCc1cnc(Cl)s1 [Clothianidin]", "no (0)"],
  ["O=C(O)C(Cl)(Cl)Cl [Trichloroacetic acid]", "no (0)"],
  ["Cc1ccc([N+](=O)[O-])cc1N [2-Methyl-5-nitroaniline]", "yes (1)"],
  ["Cc1ccc(N)cc1N [2,4-Diaminotoluene]", "yes (1)"],
  ["CC(C)=CC1C(C(=O)OCc2coc(Cc3ccccc3)c2)C1(C)C (centres undefined) [Resmethrin]", "yes (1)"],
  ["c1nc[nH]n1 [1H-1,2,4-Triazole]", "no (0)"],
  ["O=C(O)CCCOc1ccc(Cl)cc1Cl", "no (0)"],
  ["CC(C)(C)C(=O)C(Oc1ccc(Cl)cc1)n1cncn1 (centres undefined) [Triadimefon]", "no (0)"],
  ["CC1(C)C(C=C(Cl)Cl)C1C(=O)OC(C#N)c1ccc(F)c(Oc2ccccc2)c1 (centres undefined) [Cyfluthrin]", "yes (1)"],
  ["Cc1cc(Cc2ccc(N)c(C)c2)ccc1N [4,4'-Methylenebis(2-methylaniline)]", "yes (1)"],
  ["CCCN(CCC)c1c([N+](=O)[O-])cc(C(F)(F)F)cc1[N+](=O)[O-] [Trifluralin]", "yes (1)"],
  ["O=[As][O-].[Na+] [Sodium arsenite]", "no (0)"],
  ["CCNc1nc(Cl)nc(NC(C)C)n1 [Atrazine]", "no (0)"],
  ["Cc1c(F)c(F)c(COC(=O)C2C(/C=C(\\Cl)C(F)(F)F)C2(C)C)c(F)c1F (centres undefined) [Tefluthrin]", "no (0)"],
  ["C[C@@H]1C[C@@H]([C@H](O)CC2CC(=O)NC(=O)C2)C(=O)[C@@H](C)C1 [Cycloheximide]", "no (0)"],
  ["CCN(CC)c1ccccc1 [N,N-Diethylaniline]", "yes (1)"]
]}
